Property: Mortality; scope: individual compounds
PROCEDURE_DETAILS: acute toxicity
Type: in vivo, ICR-JCL mice
CONDITIONS_USED: 4,000 mg/Kg, intraperitoneal, male mice; dead/tested

Below are worked cases with known answers.
[
  {
    "COMPOUND": "CCC(=O)OC1CC(=O)OC(C)CC=CC=CC(O)C(C)CC(CC=O)C(OC2OC(C)C(OC3CC(C)(O)C(OC(=O)CC)C(C)O3)C(N(C)C)C2O)C1OC (stereo not shown)",
    "MEASUREMENT": "2/3"
  },
  {
    "COMPOUND": "CCC(=O)OC1CC(=O)OC(C)CC=CC=CC(OC(C)=O)C(C)CC(CC=O)C(OC2OC(C)C(OC3CC(C)(OCSC)C(OC(=O)CC)C(C)O3)C(N(C)C)C2O)C1OC (stereo not shown)",
    "MEASUREMENT": "0/3"
  },
  {
    "COMPOUND": "CCC(=O)OC1C=CC=CCC(C)OC(=O)CC(OC(=O)CC)C(OC)C(OC2OC(C)C(OC3CC(C)(OCSC)C(OC(=O)CC)C(C)O3)C(N(C)C)C2O)C(CC=O)CC1C (stereo not shown)",
    "MEASUREMENT": "0/3"
  }
]

--- query ---
Req: Return reported Mortality. Input compound: CCC(=O)OC1CC(=O)OC(C)CC=CC=CC(OC(C)=O)C(C)CC(CC=O)C(OC2OC(C)C(OC3CC(C)(O)C(OC(=O)CC)C(C)O3)C(N(C)C)C2O)C1OC (stereo not shown) [9-Acetyl-SF-837, reference compound]
Resp: 1/3

----------
PROCEDURE_DETAILS: acute toxicity
Assay type: in vivo, ICR-JCL mice
CONDITIONS_USED: 2,000 mg/Kg, intraperitoneal, male mice; dead/tested
MEASURED_ATTRIBUTE: Mortality

# example entries with known answers
[
  {
    "COMPOUND": "CCC(=O)OC1C=CC=CCC(C)OC(=O)CC(OC(=O)CC)C(OC)C(OC2OC(C)C(OC3CC(C)(OCSC)C(OC(=O)CC)C(C)O3)C(N(C)C)C2O)C(CC=O)CC1C (stereo not shown)",
    "Mortality": "0/3"
  },
  {
    "COMPOUND": "CCC(=O)OC1CC(=O)OC(C)CC=CC=CC(OC(C)=O)C(C)CC(CC=O)C(OC2OC(C)C(OC3CC(C)(O)C(OC(=O)CC)C(C)O3)C(N(C)C)C2O)C1OC (stereo not shown) [9-Acetyl-SF-837, reference compound]",
    "Mortality": "0/3"
  },
  {
    "COMPOUND": "CCC(=O)OC1CC(=O)OC(C)CC=CC=CC(OC(C)=O)C(C)CC(CC=O)C(OC2OC(C)C(OC3CC(C)(OCSC)C(OC(=O)CC)C(C)O3)C(N(C)C)C2O)C1OC (stereo not shown)",
    "Mortality": "0/3"
  }
]

Then there is this compound:
Req: Please report the measured Mortality for CCC(=O)OC1CC(=O)OC(C)CC=CC=CC(O)C(C)CC(CC=O)C(OC2OC(C)C(OC3CC(C)(O)C(OC(=O)CC)C(C)O3)C(N(C)C)C2O)C1OC (stereo not shown)
Resp: 2/3

----------
Test system: Staphylococcus aureus 209-P
PROCEDURE_DETAILS: therapeutic effect, treatment of animals infected by Staphylococcus (Table 3 A)
Assay type: in vivo, ICR-JCL mouse
CONDITIONS_USED: 200 mg/Kg, orally once, 10 LD50
MEASURED_ATTRIBUTE: Survival rate (%)
Kindly provide the numeric value in % only, without the unit symbol.

[
  {
    "COMPOUND": "CCC(=O)OC1CC(=O)OC(C)CC=CC=CC(OC(C)=O)C(C)CC(CC=O)C(OC2OC(C)C(OC3CC(C)(OCSC)C(OC(=O)CC)C(C)O3)C(N(C)C)C2O)C1OC (stereo not shown)",
    "TGT": "Staphylococcus aureus 209-P",
    "RESULT_UNITS": "%",
    "Survival rate": 80
  }
]

Req: Let me know recorded Survival rate for CCC(=O)OC1C=CC=CCC(C)OC(=O)CC(OC(=O)CC)C(OC)C(OC2OC(C)C(OC3CC(C)(OCSC)C(OC(=O)CC)C(C)O3)C(N(C)C)C2O)C(CC=O)CC1C (stereo not shown) , thanks.
Resp: 70

Req: Write down Survival rate measured for item CCC(=O)OC1CC(=O)OC(C)CC=CC=CC(OC(C)=O)C(C)CC(CC=O)C(OC2OC(C)C(OC3CC(C)(O)C(OC(=O)CC)C(C)O3)C(N(C)C)C2O)C1OC (stereo not shown) [9-Acetyl-SF-837, reference compound]
Resp: 100

Req: # return recorded Survival rate for entry CCC(=O)OC1CC(=O)OC(C)CC=CC=CC(O)C(C)CC(CC=O)C(OC2OC(C)C(OC3CC(C)(O)C(OC(=O)CC)C(C)O3)C(N(C)C)C2O)C1OC (stereo not shown)
Resp: 40
